Tested on: mice
Assay: Analgesic activity, acetic acid writhing
Type: in vivo
Details: 50 mg/kg orally, 30 min before acetic acid
Procedure: The prodrug compounds are administered either transdermally or orally. The parent compounds are administered orally. The number of writhing that occurred when mice are administered the acetic acid solution are counted, and the rate of inhibition based on the control group which was not pretreated with any test compounds is calculated. […] The A group is the control group.
Give No. of Writhing for every item shown.
One number for each entry.

Worked examples, 3 molecules total:
# Molecule, Assay readout, Value observed
records = [
    ("CCN(CC)CCOC(=O)c1ccccc1OC(C)=O [diethylaminoethyl acetylsalicylate.AcOH]", "No. of Writhing", 15.4),
    ("CC(=O)Oc1ccccc1C(=O)O [Aspirin, acetylsalicylic acid, reference compound]", "No. of Writhing", 18.2),
    ("O=C(O)c1cc(-c2ccc(F)cc2F)ccc1O [Diflunisal, 5-(2,4-difluorophenyl) salicylic acid, reference compound]", "No. of Writhing", 18.1),
]

Give one value of No. of Writhing per listed molecule.
1. CC(C(=O)O)c1cccc(C(=O)c2ccccc2)c1 (stereo not shown) [Ketoprofen, 2-(3-benzoylphenyl) propionic acid, reference compound]
2. CC(C)Cc1ccc(C(C)C(=O)O)cc1 (stereo not shown) [Ibuprofen, 2-(ρ-isobutylphenyl) propionic acid, reference compound]
3. CC(=O)O.CCN(CC)CCOC(=O)C(C)c1ccc(CC(C)C)cc1 (stereo not shown)

Response:
1: 18.1; 2: 17.2; 3: 14.1

No. of Writhing reading for CC(C(=O)O)c1cccc(Oc2ccccc2)c1 (stereo not shown) [Fenoprofen, 2-(3-phenoxyphenyl) propionic acid, reference compound] : 13.2

----------
Kindly state No. of Writhing for each of the entries shown.
tested on: mice; assay: Analgesic activity, acetic acid writhing; type: in vivo; conditions: 100 mg/kg transdermally, 30 min before acetic acid
Give bare numbers.

Field: example entries. Status: answers known.
# Compound, No. of Writhing
measured = [
    ("CC(=O)O.CCN(CC)CCOC(=O)C(C)c1ccc2c(c1)Cc1cccnc1O2 (stereo not drawn)", 16.1),
    ("CCN(CC)CCOC(=O)c1ccccc1OC(C)=O [diethylaminoethyl acetylsalicylate.AcOH]", 10.1),
]

State recorded No. of Writhing for all listed compounds.
1. C=CCOc1ccc(CC(=O)OCCN(CC)CC)cc1Cl.CC(=O)O
2. CC(=O)O.CCN(CC)CCOC(=O)c1ccccc1O [diethylaminoethyl salicylate.AcOH]

Response:
[15.7, 11.9]

Provide each entry's No. of Writhing from the list below.
1. CC(=O)O.CCN(CC)CCOC(=O)C(C)c1ccc2c(c1)C(=O)Cc1cc(C)ccc1O2 (stereo not drawn)
2. CC(=O)O.CCN(CC)CCOC(=O)Cc1cn(-c2ccccc2)nc1-c1ccc(Cl)cc1
3. CC(=O)O.CCN(CC)CCOC(=O)Cc1ccc(C(=O)c2ccc(C)cc2)n1C
4. CC(=O)O.CCN(CC)CCOC(=O)CCc1nc(-c2ccccc2)c(-c2ccccc2)o1
5. CC(=O)O.CCN(CC)CCOC(=O)Cc1ccccc1Oc1ccc(Cl)cc1Cl

Response:
[13.8, 15.2, 17.1, 15.7, 14.2]

----------
Would you mind telling me the reported Cholesterol (total), Baseline of each entry?
test system: rats (SLAC/GK, type 2 diabetes); experiment: Blood lipid in type 2 diabetes rats, oral with food; format: in vivo, rat; conditions: baseline, equal to 20 mg/kg of NSAIAs

Illustrative cases are given below, each with its answer.
# Compound, System tested, Value observed
records = [
    ("CC(=O)Oc1ccccc1C(=O)Oc1ccccc1C(=O)O.CCN(CC)CCOC(=O)c1ccccc1OC(=O)c1ccccc1OC(C)=O", "rats (SLAC/GK, type 2 diabetes)", "7.7 ± 0.6 mmol/L"),
    ("CC(=O)Nc1ccc(OC(=O)c2ccccc2OC(=O)CCCN(C)C)cc1.Cl", "rats (SLAC/GK, type 2 diabetes)", "7.5 ± 0.4 mmol/L"),
    ("CC(=O)Oc1ccc(-c2ccc(F)cc2F)cc1C(=O)O.CCN(CC)CCOC(=O)c1cc(-c2ccc(F)cc2F)ccc1OC(C)=O", "rats (SLAC/GK, type 2 diabetes)", "7.8 ± 0.6 mmol/L"),
    ("CCN(CC)CCOC(=O)c1cc(NC(C)=O)ccc1OC(C)=O", "rats (SLAC/GK, type 2 diabetes)", "7.9 ± 0.5 mmol/L"),
    ("CC(=O)O.CCN(CC)CCOC(=O)c1ccccc1OC(=O)c1ccccc1O [diethylaminoethyl salicylsalicylate.AcOH]", "rats (SLAC/GK, type 2 diabetes)", "7.9 ± 0.5 mmol/L"),
    ("CC(=O)Oc1ccccc1C(=O)Oc1ccccc1C(=O)Oc1ccccc1C(=O)O.CCN(CC)CCOC(=O)c1ccccc1OC(=O)c1ccccc1OC(C)=O", "rats (SLAC/GK, type 2 diabetes)", "7.5 ± 0.5 mmol/L"),
]

Below are some compounds; for each one, tell me its Cholesterol (total), Baseline.
1. CC(=O)O.CCN(CC)CCOC(=O)c1ccccc1O [diethylaminoethyl salicylate.AcOH]
2. CC(=O)Oc1ccccc1C(=O)O.CCN(CC)CCOC(=O)c1ccccc1OC(C)=O

Response:
["7.6 ± 0.5 mmol/L", "7.6 ± 0.4 mmol/L"]
